# Test system: velvetleaf (Abutilon theophrasti) (ABUTH)
# run description: post-emergent herbicidal test, velvetleaf
# Format: in vivo
# condition notes: Abutilon theophrasti, post-emergence, post-emergent, 1.0 kg/ha (*), 17-21 days after application; read-out: ABUTH percent control
The entries below come with measured pest or weed control at 1000 g/ha values attached.
Give your result in % as a bare value.

Answered examples (8):
CCCN(CCC(C)C)CC(P(=O)(O)O)P(=O)(O)O: 70
C=CCN(CC=C)CC(P(=O)(O)O)P(=O)(O)O: 10
CCC1CCCCN1CC(P(=O)(O)O)P(=O)(O)O (centres unmarked): 70
CCCCCCN(CCC)CC(P(=O)(O)O)P(=O)(O)O: 30
CC1CC(C)CN(CC(P(=O)(O)O)P(=O)(O)O)C1 (centres unmarked): 0
CCCN(CCC(=O)O)CC(P(=O)(O)O)P(=O)(O)O: 0
C=CCCNCC(P(=O)(O)O)P(=O)(O)O: 10
CCCCCN(CCC)CC(P(=O)(O)O)P(=O)(O)O: 15

So what's the measured pest or weed control at 1000 g/ha for this one? CCCN(CCC)CC(P(=O)(O)O)P(=O)(O)O
100

Quick check: pest or weed control at 1000 g/ha of CCN(CC)CC(P(=O)(O)O)P(=O)(O)O ?
15

Tell me the measured pest or weed control at 1000 g/ha of CC[C@H](C)NCC(P(=O)(O)O)P(=O)(O)O , please.
95

Given the entry CC(O)CNCC(P(=O)(O)O)P(=O)(O)O (centres unmarked) , report its measured pest or weed control at 1000 g/ha.
90

Please give the measured pest or weed control at 1000 g/ha for this molecule: O=P(O)(O)C(CN1CCCC1)P(=O)(O)O
20

Form field: reported pest or weed control at 1000 g/ha of O=P(O)(O)C(CNC1Cc2ccccc2C1)P(=O)(O)O
5

Can you share its pest or weed control at 1000 g/ha? I mean this molecule: O=P(O)(O)C(CNC1CCc2ccccc21)P(=O)(O)O (centres unmarked)
5

Any idea what pest or weed control at 1000 g/ha was measured for CC(C)N(C)CC(P(=O)(O)O)P(=O)(O)O ?
50

----------
# System: yellow nutsedge (Cyperus esculentus) (CYPES)
# run description: post-emergent herbicidal test, yellow nutsedge
# Type: in vivo
# condition notes: Cyperus, post-emergence, post-emergent, 1.0 kg/ha (*), 17-21 days after application; read-out: CYPES percent control
endpoint: pest or weed control at 1000 g/ha (%)
The reply should contain only the number, in %.

O=P(O)(O)C(CN1CC=CCC1)P(=O)(O)O: 50
CCCN(C)CC(P(=O)(O)O)P(=O)(O)O: 25
C=CCN(C)CC(P(=O)(O)O)P(=O)(O)O: 60
O=P(O)(O)C(CN[C@@H]1C[C@H]1c1ccccc1)P(=O)(O)O (relative stereo): 0
O=P(O)(O)C(CN1C=NCCC1)P(=O)(O)O: 5

Which value of pest or weed control at 1000 g/ha has been reported for CCCN(CC)CC(P(=O)(O)O)P(=O)(O)O in the records?
10

Which pest or weed control at 1000 g/ha value is on record for Cc1cnn(CC(P(=O)(O)O)P(=O)(O)O)c1 ?
0

What value of pest or weed control at 1000 g/ha has been recorded for this entry: O=P(O)(O)C(CNC1CCc2ccccc21)P(=O)(O)O (centres unmarked)
10

----------
# Test system: farnesyl pyrophosphate synthase in daffodil chromoplasts
# run description: inhibition of farnesyl pyrophosphate synthase in daffodil chromoplasts (14C-isopentenyl pyrophosphate incorporation)
# Assay type: biochemical, Narcissus pseudonarcissus
# condition notes: Table I; unit inferred, IC50 values in nM; read-out: IC50
endpoint: IC50 (nM)
Answer in nM, number only, no unit symbol.

CCCCNCC(P(=O)(O)O)P(=O)(O)O [Compound 14]: 347
CCCCN(CCC)CC(P(=O)(O)O)P(=O)(O)O [Compound 52]: 87
CCCNCC(P(=O)(O)O)P(=O)(O)O [Compound 3]: 30
CC(NCC(P(=O)(O)O)P(=O)(O)O)c1ccc(F)cc1 (centres unmarked) [Compound 44]: 2510

# evaluate next
Any idea what IC50 was measured for CC1(C)CCCN(CC(P(=O)(O)O)P(=O)(O)O)C1 [Compound 47] ?
2280

----------
# System: farnesyl pyrophosphate synthase in daffodil chromoplasts
# run description: inhibition of farnesyl pyrophosphate synthase in daffodil chromoplasts (14C-isopentenyl pyrophosphate incorporation)
# Assay type: biochemical, Narcissus pseudonarcissus
# condition notes: Table I; unit inferred, IC50 values in nM; read-out: IC50
Reported IC50 values are given for each entry in this list.
Quick reminder: number only, in nM, skip the unit.

Examples with answers:
CCNCC(P(=O)(O)O)P(=O)(O)O: 150
CC1CCCN(CC(P(=O)(O)O)P(=O)(O)O)C1C (stereo not drawn): 96
CNCC(O)(P(=O)(O)O)P(=O)(O)O: 500000
CC1CCCN1CC(P(=O)(O)O)P(=O)(O)O (stereo not drawn): 93
CC1CCN(CC(P(=O)(O)O)P(=O)(O)O)CC1: 266

Fill in the blank: the reported IC50 of CCCN(CCC(=O)O)CC(P(=O)(O)O)P(=O)(O)O is ____.
479

Data request, read-out IC50, for CC1CCCN(CC(P(=O)(O)O)P(=O)(O)O)C1 (stereo not drawn)
385

Which IC50 value belongs to CCCCCN(CCC)CC(P(=O)(O)O)P(=O)(O)O ?
186

Name the recorded IC50 for O=P(O)(O)C(CN1C=NCCC1)P(=O)(O)O .
50

----------
# System: velvetleaf (Abutilon theophrasti) (ABUTH)
# run description: post-emergent herbicidal test, velvetleaf
# Type: in vivo
# condition notes: Abutilon theophrasti, post-emergence, post-emergent, 1.0 kg/ha (*), 17-21 days after application; read-out: ABUTH percent control
Note to self: class labels come from recorded pest or weed control at 1000 g/ha, ranges listed here: low group: < 5%; middle group: ≥ 5% and < 70%; high group: ≥ 70%

Take a look at these entries with their results.
CC1CCCN(CC(P(=O)(O)O)P(=O)(O)O)C1 (stereo not shown): low group
CCCCN(CCC)CC(P(=O)(O)O)P(=O)(O)O: high group
CC1(C)CCCN(CC(P(=O)(O)O)P(=O)(O)O)C1: low group
O=P(O)(O)C(Cn1ccnc1)P(=O)(O)O: high group
C=CCN(CC)CC(P(=O)(O)O)P(=O)(O)O: middle group

Any idea which band Cc1cn(CC(P(=O)(O)O)P(=O)(O)O)cn1 is in?
high group

Which band does O=P(O)(O)C(CN1CCCCCC1)P(=O)(O)O fall in?
low group

Which band does CCCCN(CCCC)CC(P(=O)(O)O)P(=O)(O)O fall in?
low group

For the record Cc1cnn(CC(P(=O)(O)O)P(=O)(O)O)c1 , report the class its pest or weed control at 1000 g/ha corresponds to.
middle group

Any idea which band O=P(O)(O)C(CNCC(F)(F)F)P(=O)(O)O is in?
low group

----------
# Tested on: velvetleaf (Abutilon theophrasti) (ABUTH)
# run description: post-emergent herbicidal test, velvetleaf
# Assay type: in vivo
# condition notes: Abutilon theophrasti, post-emergence, post-emergent, 1.0 kg/ha (*), 17-21 days after application; read-out: ABUTH percent control
# Method: Seeds of several different weed species were planted in sandy loam soil containing only trace organic matter. Propagules were sown in individuals rows using one species per row across the width of an aluminum flat (19.5×9.5×6 cm). […] The degree of weed control was evaluated 17-21 days after application and recorded as percentage of control as compared to the growth of the same species in an untreated control flat of the same. […]
endpoint: pest or weed control at 1000 g/ha (%)
Numbers only; they are read as %.

The cases that follow already have their pest or weed control at 1000 g/ha on record.
CC1CCN(CC(P(=O)(O)O)P(=O)(O)O)CC1: 5
CCOCCNCC(P(=O)(O)O)P(=O)(O)O: 5

Field request: pest or weed control at 1000 g/ha | item: O=P(O)(O)C(CN1C=NCCC1)P(=O)(O)O
100

----------
The compounds listed here are annotated with their pest or weed control at 1000 g/ha.
# System: velvetleaf (Abutilon theophrasti) (ABUTH)
# run description: post-emergent herbicidal test, velvetleaf
# Type: in vivo
# condition notes: Abutilon theophrasti, post-emergence, post-emergent, 1.0 kg/ha (*), 17-21 days after application; read-out: ABUTH percent control
A complete answer gives the number and then names the unit.

CC1CCCN(CC(P(=O)(O)O)P(=O)(O)O)C1C (stereo not drawn): 80%

Returns the measured pest or weed control at 1000 g/ha for the input compound. Input: O=P(O)(O)C(CN[C@@H]1C[C@H]1c1ccccc1)P(=O)(O)O (relative stereo)
20%

Recorded pest or weed control at 1000 g/ha of CCCN(C)CC(P(=O)(O)O)P(=O)(O)O , please.
75%

Could you tell me which pest or weed control at 1000 g/ha is on file for CC1CCCC1NCC(P(=O)(O)O)P(=O)(O)O (stereo not drawn) ?
5%
